Test system: Haemonchus contortus larvae
Assay: Haemonchus contortus test (HAEMCO), larval mortality
Type: in vivo
Conditions: application rate 100 ppm; after 5 days; 100% = all larvae killed
MEASURED PARAMETER: activity (percentage of larval mortality) (%)
Report the value in % with no unit label.

Check out these entries, answers already filled in.
* O=C(NCCc1cc(F)ncc1F)c1ccccc1C(F)(F)F | 100
* O=C(NCCc1cnc(C(F)(F)F)cc1Cl)c1ccccc1C(F)F | 100
* O=C(NCCc1cnc(C(F)(F)F)cc1Cl)c1ccccc1F | 90
* O=C(NCCc1cnc(C(F)(F)F)cc1Cl)c1c(F)cccc1F | 90
* CCOC(=O)C(CNC(=O)c1ccccc1C(F)(F)F)(C(=O)OC)c1ncc(C(F)(F)F)cc1Cl (centres unmarked) | 80

Form: compound = COC(=O)C(CNC(=O)c1ccccc1C(F)(F)F)c1ncc(C(F)(F)F)cc1Cl (centres unmarked) ; activity (percentage of larval mortality) = 80

Form: compound = "O=C(NCCc1cnc(C(F)(F)F)cc1Cl)c1ccccc1C(F)(F)F" ; activity (percentage of larval mortality) = 100

Form: compound = "O=C(NCCc1c(F)c(F)nc(F)c1F)c1ccccc1C(F)(F)F" ; activity (percentage of larval mortality) = 100

Form: compound = "O=C(NCC1(c2ccc(Cl)cn2)CC1)c1ccccc1C(F)(F)F" ; activity (percentage of larval mortality) = 80

Form: compound = "COC(=O)C(CNC(=O)c1ccccc1C(F)(F)F)(C(=O)OC)c1ncc(C(F)(F)F)cc1Cl" ; activity (percentage of larval mortality) = 90

Form: compound = "O=C(NCCc1cnc(C(F)(F)F)cc1Cl)c1ccccc1Cl" ; activity (percentage of larval mortality) = 100

###

In this section, each of the compounds is paired with its reported activity (percentage of larval mortality).
System: Cooperia curticei larvae
Assay: Cooperia curticei test (COOPCU), larval mortality
Assay type: in vivo
Details: application rate 100 ppm; after 5 days; 100% = all larvae killed
Report the value in % with no unit label.

- COc1cc(CCNC(=O)c2ccccc2OC)ccn1: 90
- O=C(NCCc1cnc(C(F)(F)F)cc1Cl)c1ccccc1F: 90
- COc1cc(CCNC(=O)c2ccc(C(F)(F)F)cc2)ccn1: 90
- CCc1ccc(C(=O)NCCc2ccnc(OC)c2)cc1: 80
- COc1cc(CCNC(=O)c2cccc(Cl)c2)ccn1: 90

Form: compound = "O=C(NCCc1c(Cl)cncc1Cl)c1ccc(F)c(F)c1" ; activity (percentage of larval mortality) = 80

This collection of values is drawn from patent US9301526B2.
